Test: duplex melting temperature (HRM, EvaGreen); higher = more stable duplex
Details: duplex concentration 2.5 µM; backbone: PO-PO (both strands phosphodiester DNA)
Record true whenever duplex melting temperature is at 70 °C or higher; record false when lower.

Consider the following illustrative entries.
# chain, assigned.category
records = [
    ("CTTTTGTGCGGGTAGC", "false"),
    ("TGTCGCACCCTACTA", "false"),
    ("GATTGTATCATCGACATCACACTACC", "true"),
    ("GCTGAACTAACCACCA", "false"),
    ("CAAGCCTCGATTTTGT", "false"),
    ("GCTGTGAAACAATGTAG", "false"),
    ("GAGGCAGCCGCGACCTG", "true"),
    ("TATTCTGCCAATGGAAC", "false"),
    ("GAACCGTTGATGATCTC", "false"),
    ("CGTGCAGCACTACTTG", "false"),
]

Hi team, for TTGAAAACCCATGTGC , is the recorded duplex melting temperature at or above 70 °C? false

* * *

Test: duplex melting temperature (HRM, EvaGreen); higher = more stable duplex
Conditions: duplex concentration 10 µM; backbone: PO-PO (both strands phosphodiester DNA)
reported.property: duplex melting temperature
Answer format reminder: number followed by unit.

Worked cases, duplex melting temperature given:
# chain, duplex melting temperature
measured = [
    ("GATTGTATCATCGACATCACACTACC", "77.8 °C"),
    ("CTCGGAGGCCCCATTTA", "74.7 °C"),
    ("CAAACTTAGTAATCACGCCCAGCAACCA", "82.1 °C"),
    ("GGTTGCGGTGGCCAAC", "76.9 °C"),
    ("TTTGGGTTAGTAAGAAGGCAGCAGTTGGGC", "83.8 °C"),
]

Consider the sequence ACGGGTCGTTCCGTG and give its recorded duplex melting temperature. 74.3 °C

Given TTCGCGGTCTCCATTA , respond with its duplex melting temperature. 71.6 °C

Determine from records and report duplex melting temperature for GAACTGCCACTACCAA 69.5 °C

Indicate the recorded duplex melting temperature value for this sequence: CGGTGCTTTTGGTAGC 70.5 °C

Tell us which duplex melting temperature value is on record for GTGGTACAAATGCGACC 72.1 °C

Supply duplex melting temperature value. Item: TCTACACCGCGA 65.8 °C

Tell me duplex melting temperature reported for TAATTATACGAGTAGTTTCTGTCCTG 75.4 °C

Fill in duplex melting temperature for record TTGAAAACCCATGTGC 67.3 °C

Let me know recorded duplex melting temperature for GAGCAGAAGGGGTTGT , thanks. 70.9 °C

Entry GCTGAACTAACCACCA needs its duplex melting temperature filled in; supply it. 69.2 °C

Consider the sequence GCCCGAGCATGACTGCG and give its recorded duplex melting temperature. 78.5 °C

* * *

Listing of entries alongside the reported duplex formation free energy ΔG50.
Assay: duplex formation free energy ΔG50 (Van't Hoff fit of HRM Tm); higher = less stable duplex
Settings: temperature for dG: 50 °C; NaCl: 500 mM (unadjusted); backbone: PS-PS (both strands fully phosphorothioate)
Unit kcal/mol implied. Number only.

Worked set:
# chain, duplex formation free energy ΔG50 (kcal/mol)
measured = [
    ("TGTCGCACCCTACTA", -9.84),
    ("CTTTTGTGCGGGTAGC", -9.59),
]

Answer with the recorded duplex formation free energy ΔG50 of CTCAGAGTAGAGCCGA only. -9.83

Specify measured duplex formation free energy ΔG50 for ATAACTTACTCTCGCCT . -9.29

Give me measured duplex formation free energy ΔG50, please, for this sequence: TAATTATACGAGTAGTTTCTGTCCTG -10.8

Input TATTCTGCCAATGGAAC , output reported duplex formation free energy ΔG50. -8.75

Give a short answer stating reported duplex formation free energy ΔG50 for AACGAATGTCAGCAATT . -9.17

Name the recorded duplex formation free energy ΔG50 of the item AGCACGGTGGTACAACA in your answer. -9.89
